- target.or.system: Amine oxidase [flavin-containing] B (Homo sapiens, UniProt P27338)
- Sequence (P27338 whole entry): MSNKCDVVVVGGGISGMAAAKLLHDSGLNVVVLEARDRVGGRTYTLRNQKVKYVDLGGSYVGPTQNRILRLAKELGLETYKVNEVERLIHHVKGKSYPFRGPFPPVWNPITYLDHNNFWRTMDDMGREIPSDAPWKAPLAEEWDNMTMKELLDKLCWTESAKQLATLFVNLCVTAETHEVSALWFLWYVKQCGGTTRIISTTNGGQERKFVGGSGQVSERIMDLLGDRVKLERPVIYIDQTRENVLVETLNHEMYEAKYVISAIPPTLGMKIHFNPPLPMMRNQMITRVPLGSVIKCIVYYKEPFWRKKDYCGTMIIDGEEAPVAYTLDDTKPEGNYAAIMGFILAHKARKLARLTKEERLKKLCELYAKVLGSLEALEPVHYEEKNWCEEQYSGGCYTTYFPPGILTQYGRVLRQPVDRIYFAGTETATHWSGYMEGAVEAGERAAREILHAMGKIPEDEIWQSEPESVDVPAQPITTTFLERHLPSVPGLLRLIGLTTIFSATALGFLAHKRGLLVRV
- assay: Inhibition of human recombinant MAO-B expressed in BTI-TN-5B1-4 insect cells using p-tyramine substrate by Amplex Red MAO assay
Rule: IC50 below 8000 nM gives T. Equal to or above 8000 nM gives F.

Please determine if COc1ccc(C2OC(c3ccccc3)=NN2C(C)=O)cc1 (stereo unspecified) is below 8000 nM in terms of IC50.
T

Please determine if CC(=O)N1N=C(c2ccccc2)O[C@@H]1c1ccc(C)cc1 is below 8000 nM in terms of IC50.
F

Please determine if CC(=O)N1N=C(c2ccc(Br)cc2)OC1c1ccc(Cl)cc1 (stereo in doubt; 4s) is below 8000 nM in terms of IC50.
T

Please determine if CC(=O)N1N=C(c2ccc(Cl)cc2)OC1c1ccc(Cl)cc1 (stereo in doubt; 4p) is below 8000 nM in terms of IC50.
T

Please determine if CC(=O)N1N=C(c2ccc([N+](=O)[O-])cc2)OC1c1ccc(Cl)cc1 (stereo unspecified) is below 8000 nM in terms of IC50.
T

Please determine if CC(=O)N1N=C(c2ccccc2)OC1c1ccc(C)cc1 (stereo in doubt; 4y) is below 8000 nM in terms of IC50.
F

From: ChEMBL document CHEMBL1821564
